system: RARa homodimer (NR concentration 270 nM); assay: PBM binding z-score (relative to random genomic background probes); higher = stronger binding; sequences stand for … in GC…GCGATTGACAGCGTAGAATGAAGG
PBM binding z-score for assorted sequences

polymer_sequence | PBM binding z-score
CGAACGAGGTCATCCAGGACAGTGAATACATTGA | 1.86
TATAAAGGGTCAAAGGCCAGAGTACGAATGTCGA | 1.64
CCGAGTAGGTTACTAGGGGGCATTCAGTGCGAAT | 0.177
CCTACTGGGTCACGAAAGGTCATTGATTCAGTGA | 2.35
CGTCAAACTTCAACTAAGGTAACGTAAAGCACGC | 1.05
CCTACTGGGCCACGAAAGGCCATTGATTCAGTGA | -0.712
